# assay-name: in vitro
# stated-conditions: rat, gh3-tre-luc cells, AC50 (uM) modified / 1000
Counter-ions that a name gives are not always drawn.
property-label: CC50 at 24 h

Short answer for "C[C]1([Mn](=[C]=O)(=[C]=O)=[C]=O)C=CC=C1" : CC50 at 24 h was > 90 µM

Short answer for FC(F)(F)C(F)(F)C(F)(F)C(F)(F)C(F)(F)C(F)(F)F [Perflexane] : CC50 at 24 h was > 50 µM

Short answer for CC1CCCCN1CCCOC(=O)c1ccccc1 (stereo not drawn) [Piperocaine hydrochloride] : CC50 at 24 h was > 50 µM

----------
# assay-name: in vitro
# stated-conditions: rat, gh3-tre-luc cells, AC50 (uM) modified / 1000
Structures can show the parent of a compound that is named as a salt.
property-label: CC50 at 24 h

Short answer for CCCCOC(CC)OC(C)COC(O)CC (stereo not shown) : CC50 at 24 h was > 90 µM

Short answer for "CN(C)C(=O)NC1(c2ccccc2)CCN(CCC[C@]2(c3ccc(Cl)c(Cl)c3)CCCN(C(=O)c3ccccc3)C2)CC1" : CC50 at 24 h was 8.07 µM

Short answer for COCCc1ccc(OCC(O)CNC(C)C)cc1 (stereo not shown) [Metoprolol tartrate] : CC50 at 24 h was > 50 µM

Short answer for "O=[N+]([O-])C(CO)(CO)CO" : CC50 at 24 h was > 90 µM

----------
Give CC50 at 24 h for every item shown.
# assay-name: in vitro
# stated-conditions: rat, gh3-tre-luc cells, AC50 (uM) modified / 1000

Short answer for "COC1=CC(=O)O[C@@H](/C=C/c2ccc3c(c2)OCO3)C1" : CC50 at 24 h was > 90 µM

Short answer for "CCCCCCCCCCCO" : CC50 at 24 h was > 90 µM

Short answer for O=C1NCN(c2ccccc2)C12CCN(CC1COc3ccccc3O1)CC2 (stereo not drawn) : CC50 at 24 h was 36.3 µM

----------
# target-or-test-system: human TRβ ligand-binding domain (Homo sapiens, UniProt P10828)
# Sequence (P10828 217-461 limits assumed): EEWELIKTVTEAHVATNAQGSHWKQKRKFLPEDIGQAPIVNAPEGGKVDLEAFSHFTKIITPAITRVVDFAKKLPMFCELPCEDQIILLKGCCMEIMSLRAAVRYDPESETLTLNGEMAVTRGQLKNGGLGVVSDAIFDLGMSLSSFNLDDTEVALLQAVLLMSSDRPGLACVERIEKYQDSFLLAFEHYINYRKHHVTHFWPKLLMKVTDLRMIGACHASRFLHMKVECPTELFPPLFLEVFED
# assay-name: TRb-bla agonist mammalian one-hybrid beta-lactamase assay (TOX21_TRB_BLA_Agonist_Followup_ratio, aeid 2236)
# Type: cell-based
# Design: host or cells: GeneBLAzer UAS-bla HEK 293T
# stated-conditions: read-out: EMax (% of Control) trb-bla-agonist-followup-1
Where a name gives a salt, the structure may show the parent alone.
Give Emax for every item shown.
Write it as a number; the unit % goes unstated.

Short answer for O=C(O)Cc1cc(I)c(Oc2cc(I)c(O)c(I)c2)c(I)c1 [Tetrac, 3,3ʹ,5,5ʹ-tetraiodothyroacetic acid] : Emax was 204

Short answer for C[C@]12CC[C@H]3C(=CCc4cc(O)ccc43)[C@@H]1CCC2=O [Equilin, reference compound] : Emax was 13.5

Short answer for NCC(=O)CCC(=O)O [Aminolevulinic acid hydrochloride] : Emax was 12.7

Short answer for C=C(NC(=O)C(=C)NC(=O)c1csc(C2=N[C@@H]3c4csc(n4)[C@H]4NC(=O)c5csc(n5)[C@H]([C@](C)(O)[C@@H](C)O)NC(=O)[C@H]5CSC(=N5)/C(=C/C)NC(=O)[C@H]([C@@H](C)O)NC(=O)c5csc(n5)[C@]3(CC2)NC(=O)[C@H](C)NC(=O)C(=C)NC(=O)[C@H](C)NC(=O)[C@H]([C@@H](C)CC)N[C@@H]2C=Cc3c([C@H](C)O)cc(nc3[C@H]2O)C(=O)O[C@@H]4C)n1)C(N)=O [Thiostrepton] : Emax was 4.1

Short answer for CC1=C(/C=C/C(C)=C/C=C/C(C)=C/C(=O)O)C(C)(C)CCC1 [all trans-Retinoic acid, reference compound] : Emax was 31.1

Short answer for Cc1cccc(C)c1[N+](=O)[O-] [1,3-Dimethyl-2-nitrobenzene] : Emax was 6.6

Short answer for CN(C)c1ccc(N=O)cc1 [N,N-dimethyl-4-nitrosoaniline] : Emax was 8.4

Short answer for CC1=C(/C=C/C(C)=C\C=C\C(C)=C\C(=O)O)C(C)(C)CCC1 [9-cis Retinoic acid, reference compound] : Emax was 5.7

Short answer for c1csc(-c2ccc(-c3cccs3)s2)c1 [alpha-Terthiophene] : Emax was 25.8

Short answer for O=C(O)CCNC(=O)c1ccccc1 [Betamipron, reference compound] : Emax was 85.5

Short answer for COc1ccc(OC)c(C(O)C(C)N)c1 (stereo not drawn) [Methoxamine hydrochloride] : Emax was 7.9

Short answer for CC1=C(/C=C/C(C)=C/C=C/C(C)=C\C(=O)O)C(C)(C)CCC1 [13-cis Retinoic acid, reference compound] : Emax was 6.8

Short answer for C[C@H](CCC(=O)NCC(=O)O)[C@H]1CC[C@H]2[C@@H]3[C@H](O)C[C@@H]4C[C@H](O)CC[C@]4(C)[C@H]3C[C@H](O)[C@]12C [glycocholic acid] : Emax was 14.8

Short answer for COc1cc(C)c(/C=C/C(C)=C/C=C/C(C)=C/C(=O)O)c(C)c1C [Acitretin, reference compound] : Emax was 4.1

Short answer for O=c1[nH]cnc2c1ncn2[C@H]1CC[C@@H](CO)O1 [2',3'-Dideoxyinosine] : Emax was 74.4

Short answer for C=C(c1ccc(C(=O)O)cc1)c1cc2c(cc1C)C(C)(C)CCC2(C)C [Bexarotene, reference compound] : Emax was 11.8

Short answer for Cc1occc(=O)c1O [Maltol] : Emax was 2.7

Short answer for O=C(Cl)OCCOCCOC(=O)Cl [Diethlylene glycol bis chloroformate] : Emax was 6.2

----------
# assay-name: in vitro
# stated-conditions: rat, gh3-tre-luc cells, AC50 (uM) modified / 1000
property-label: CC50 at 24 h

Short answer for C[C@]12CCC(=O)C=C1[C@@H]1C[C@@H]1[C@H]1[C@@H]3[C@@H]4C[C@@H]4[C@@]4(CCC(=O)O4)[C@@]3(C)CC[C@@H]12 [Drospirenone] : CC50 at 24 h was > 50 µM

Short answer for CNC(=O)Oc1cccc2ccccc12 [Carbaryl] : CC50 at 24 h was > 90 µM

Short answer for Cc1ccc(-c2nc3ccc(C)cn3c2CC(=O)N(C)C)cc1 [Zolpidem] : CC50 at 24 h was > 50 µM

Short answer for c1ccc2[nH]ccc2c1 [Indole] : CC50 at 24 h was > 90 µM

Short answer for CCCCCCCCCCCCCCCCCCOCC(COP(=O)([O-])OCC[N+](C)(C)C)OC (centres unmarked) [Edelfosine] : CC50 at 24 h was 43.1 µM

Short answer for CCCCCSCCCCC [Pentyl sulfide] : CC50 at 24 h was > 90 µM

Short answer for Cc1cccc(C)c1 [m-Xylene] : CC50 at 24 h was > 90 µM

Short answer for O=C1c2ccccc2C(=O)N1SC1CCCCC1 [N-(Cyclohexylthio)phthalimide] : CC50 at 24 h was 37 µM

----------
Give CC50 at 24 h for every item shown.
# assay-name: in vitro
# stated-conditions: rat, gh3-tre-luc cells, AC50 (uM) modified / 1000

Short answer for N#C/C(=C1/SCC(c2ccccc2Cl)S1)n1ccnc1 (stereo not drawn) : CC50 at 24 h was > 50 µM

Short answer for O=C(Oc1ccccc1)c1cccc(C(=O)Oc2ccccc2)c1 [Diphenyl isophthalate] : CC50 at 24 h was > 100 µM

Short answer for CCCCCCC1CCCC(=O)O1 (stereo not drawn) : CC50 at 24 h was > 90 µM

----------
# assay-name: in vitro
# stated-conditions: rat, gh3-tre-luc cells, AC50 (uM) modified / 1000
Where a name gives a salt, the structure may show the parent alone.
Give CC50 at 24 h for every item shown.

Short answer for Brc1c2ccccc2c(Br)c2ccccc12 [9,10-Dibromoanthracene] : CC50 at 24 h was > 5 µM

Short answer for C=C(C)C(=O)OCCO [2-Hydroxyethyl methacrylate] : CC50 at 24 h was > 90 µM

Short answer for OCCN1CCN(CCO)CC1 [1,4-Piperazinediethanol] : CC50 at 24 h was > 90 µM

Short answer for CCOC(=O)Nc1ccc(NCc2ccc(F)cc2)nc1N [Flupirtine maleate] : CC50 at 24 h was > 50 µM

Short answer for "O=S(=O)(O)CCN1CCN(CCO)CC1" : CC50 at 24 h was > 90 µM

Short answer for CCCOC(=O)c1ccc(N)cc1 [Risocaine] : CC50 at 24 h was > 50 µM

Short answer for "CCCCCCCCCCCC[N+](C)(C)CCCS(=O)(=O)O" : CC50 at 24 h was 55.3 µM

Short answer for CN(C)CCCN(C)CCCN(C)C [2,6,10-Trimethyl-2,6,10-triazaundecane] : CC50 at 24 h was > 90 µM

Short answer for CCC(=O)[C@@]1(C)[C@H](C)C[C@H]2[C@@H]3CCC4=CC(=O)C=C[C@]4(C)[C@H]3[C@@H](O)C[C@@]21C [Rimexolone] : CC50 at 24 h was > 20 µM

Short answer for CCC12COCN1COC2 [Oxazolidine-E] : CC50 at 24 h was > 90 µM

Short answer for CNC(=O)N(C)c1nc2ccccc2s1 [Methabenzthiazuron] : CC50 at 24 h was > 90 µM

Short answer for CNCCC=C1c2ccccc2CCc2ccccc21 [Nortriptyline hydrochloride] : CC50 at 24 h was 12.6 µM

Short answer for CC/C=C/CCCCCCCCC1CC(=O)OC1=O (stereo not shown) [(Tetrapropenyl)succinic anhydride] : CC50 at 24 h was > 90 µM

Short answer for C[C@]1(Cn2ccnn2)[C@H](C(=O)O)N2C(=O)C[C@H]2S1(=O)=O [Tazobactam sodium] : CC50 at 24 h was > 50 µM

Short answer for CC(=O)OC/C=C(\C)CCC=C(C)C [Geranyl acetate] : CC50 at 24 h was > 90 µM

Short answer for C[N+](C)(C)CCO [Cholin acetate] : CC50 at 24 h was > 50 µM
